assayedTarget: Norepinephrine transporter (Rattus norvegicus, UniProt Q9WTR4)
Sequence (Q9WTR4 whole entry): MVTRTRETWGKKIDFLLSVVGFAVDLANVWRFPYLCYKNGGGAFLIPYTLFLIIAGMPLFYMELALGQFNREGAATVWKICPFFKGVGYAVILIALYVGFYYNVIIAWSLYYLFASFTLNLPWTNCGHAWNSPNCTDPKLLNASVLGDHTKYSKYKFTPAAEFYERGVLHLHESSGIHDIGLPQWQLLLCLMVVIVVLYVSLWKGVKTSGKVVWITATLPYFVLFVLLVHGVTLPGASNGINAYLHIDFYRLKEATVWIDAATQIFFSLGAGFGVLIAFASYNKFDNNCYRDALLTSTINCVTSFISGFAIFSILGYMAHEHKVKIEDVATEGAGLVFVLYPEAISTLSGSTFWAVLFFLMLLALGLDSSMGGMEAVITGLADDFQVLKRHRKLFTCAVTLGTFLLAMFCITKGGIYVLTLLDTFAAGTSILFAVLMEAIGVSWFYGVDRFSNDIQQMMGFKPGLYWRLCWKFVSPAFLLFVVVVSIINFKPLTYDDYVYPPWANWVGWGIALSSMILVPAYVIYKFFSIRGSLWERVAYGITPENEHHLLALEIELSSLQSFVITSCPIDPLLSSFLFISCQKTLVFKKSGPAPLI
methodSummary: Ability to inhibit reuptake of norepinephrine ([3H]NE) at norepinephrine transporter of rat parietal/occipital region
Can you tell me pKi for the items I'm about to list?
# reply with the number alone; pKi is -log10 of concentration in mol/L

Incoming: Which measured pKi value corresponds to CCCCc1ccc(/C=C2\CN3C4CCC3C(C(=O)OC)C2C4)s1 (centres undefined) ?
Outgoing: 6.44

Incoming: Which measured pKi value corresponds to COC(=O)C1C2CC3CCC1N3C/C2=C\c1cc(C)c(Br)s1 (centres undefined) ?
Outgoing: 7.43

Incoming: Which measured pKi value corresponds to COC(=O)C1C2CC3CCC1N3C/C2=C\c1ccc(-c2ccccc2)s1 (centres undefined) ?
Outgoing: 7.87

Incoming: Which measured pKi value corresponds to COC(=O)C1C2CC3CCC1N3C/C2=C\c1ccccn1 (centres undefined) ?
Outgoing: 6.94

Incoming: Which measured pKi value corresponds to COC(=O)C1C2CC3CCC1N3C/C2=C\c1cccc(OC)n1 (centres undefined) ?
Outgoing: 6.51

Incoming: Which measured pKi value corresponds to COC(=O)C1C2CC3CCC1N3C/C2=C\c1cnccn1 (centres undefined) ?
Outgoing: 5.71

Incoming: Which measured pKi value corresponds to COC(=O)C1C2CC3CCC1N3C/C2=C\c1ccc(Cl)s1 (centres undefined) ?
Outgoing: 8.01

Incoming: Which measured pKi value corresponds to COC(=O)C1C2CC3CCC1N3C/C2=C\c1cnc(OC)nc1OC (centres undefined) ?
Outgoing: 5.02

Incoming: Which measured pKi value corresponds to COC(=O)C1C2CC3CCC1N3C/C2=C\c1ccc(Br)s1 (centres undefined) ?
Outgoing: 7.70

* * *

methodSummary: Ratio of inhibitory activity against reuptake of norepinephrine ([3H]-NE) to that of serotonin ([3H]-5-HT)[…]
Type: functional
Lab note - cut at 4 for Ratio: Y if strictly below, N if not.

Incoming: Say whether its Ratio is strictly beneath 4. Entry: COC(=O)C1C2CC3CCC1N3C/C2=C\c1ccc(Cl)nc1 (stereo unspecified)
Outgoing: N

Incoming: Say whether its Ratio is strictly beneath 4. Entry: COC(=O)C1C2CC3CCC1N3C/C2=C\c1nccs1 (stereo unspecified)
Outgoing: Y

Incoming: Say whether its Ratio is strictly beneath 4. Entry: COC(=O)C1C2CC3CCC1N3C/C2=C\c1cccnc1 (stereo unspecified)
Outgoing: Y

Incoming: Say whether its Ratio is strictly beneath 4. Entry: COC(=O)C1C2CC3CCC1N3C/C2=C\c1ccc(OC)s1 (stereo unspecified)
Outgoing: N

Incoming: Say whether its Ratio is strictly beneath 4. Entry: COC(=O)C1C2CC3CCC1N3C/C2=C\c1cnc(OC)nc1OC (stereo unspecified)
Outgoing: Y

Incoming: Say whether its Ratio is strictly beneath 4. Entry: CCc1ccc(/C=C2\CN3C4CCC3C(C(=O)OC)C2C4)s1 (stereo unspecified)
Outgoing: N

* * *

Can you tell me pKi for the items I'm about to list?
assayedTarget: Sodium-dependent dopamine transporter (Rattus norvegicus)
Sequence (P23977 whole entry): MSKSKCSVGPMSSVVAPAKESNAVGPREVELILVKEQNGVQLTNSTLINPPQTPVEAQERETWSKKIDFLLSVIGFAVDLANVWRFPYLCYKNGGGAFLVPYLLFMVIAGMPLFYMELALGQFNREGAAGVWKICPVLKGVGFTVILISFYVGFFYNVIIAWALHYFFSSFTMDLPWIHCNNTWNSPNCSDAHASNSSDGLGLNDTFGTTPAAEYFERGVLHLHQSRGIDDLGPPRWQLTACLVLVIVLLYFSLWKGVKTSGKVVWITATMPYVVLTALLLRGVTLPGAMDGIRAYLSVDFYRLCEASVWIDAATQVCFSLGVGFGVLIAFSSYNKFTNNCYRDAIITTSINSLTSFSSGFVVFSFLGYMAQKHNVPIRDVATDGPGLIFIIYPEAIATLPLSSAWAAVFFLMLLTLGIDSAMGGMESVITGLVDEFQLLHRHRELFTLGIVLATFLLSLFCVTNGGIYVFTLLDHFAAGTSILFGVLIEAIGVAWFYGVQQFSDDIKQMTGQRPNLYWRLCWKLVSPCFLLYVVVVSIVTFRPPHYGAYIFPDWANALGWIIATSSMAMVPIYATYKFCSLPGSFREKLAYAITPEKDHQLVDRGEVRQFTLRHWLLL
methodSummary: Ability to inhibit reuptake of dopamine ([3H]DA) at dopamine transporter of rat striatum
# reply with the number alone; pKi is -log10 of concentration in mol/L

Incoming: Which measured pKi value corresponds to COC(=O)C1C2CC3CCC1N3C/C2=C\c1nccs1 (stereo not drawn) ?
Outgoing: 5.29

Incoming: Which measured pKi value corresponds to CCCCc1ccc(/C=C2\CN3C4CCC3C(C(=O)OC)C2C4)s1 (stereo not drawn) ?
Outgoing: 5.33

Incoming: Which measured pKi value corresponds to COC(=O)C1C2CC3CCC1N3C/C2=C\c1ccc(-c2cccs2)s1 (stereo not drawn) ?
Outgoing: 6.53

Incoming: Which measured pKi value corresponds to COC(=O)C1C2CC3CCC1N3C/C2=C\c1ccc(Cl)s1 (stereo not drawn) ?
Outgoing: 6.89

Incoming: Which measured pKi value corresponds to COC(=O)C1C2CC3CCC1N3C/C2=C\c1ccc(-c2ccc(Cl)s2)s1 (stereo not drawn) ?
Outgoing: 6.62

Incoming: Which measured pKi value corresponds to CCCc1ccc(/C=C2\CN3C4CCC3C(C(=O)OC)C2C4)s1 (stereo not drawn) ?
Outgoing: 5.80

Incoming: Which measured pKi value corresponds to COC(=O)C1C2CC3CCC1N3C/C2=C\c1cnccn1 (stereo not drawn) ?
Outgoing: 5.18

Incoming: Which measured pKi value corresponds to COC(=O)C1C2CC3CCC1N3C/C2=C\c1ccc(-c2ccccc2)s1 (stereo not drawn) ?
Outgoing: 6.75

Incoming: Which measured pKi value corresponds to COC(=O)C1C2CC3CCC1N3C/C2=C\c1ccc(Br)s1 (stereo not drawn) ?
Outgoing: 6.83

Incoming: Which measured pKi value corresponds to COC(=O)C1C2CC3CCC1N3C/C2=C\c1ccc(-c2ccc(OC)cc2)s1 (stereo not drawn) ?
Outgoing: 6.43

* * *

Can you tell me Ratio for the items I'm about to list?
methodSummary: Inhibition of reuptake of norepinephrine compared to serotonin.
Format: functional

Incoming: Which measured Ratio value corresponds to COC(=O)C1C2CC3CCC1N3C/C2=C\c1cc(C)c(Br)s1 (configuration not stated) ?
Outgoing: 5.45

Incoming: Which measured Ratio value corresponds to COC(=O)C1C2CC3CCC1N3C/C2=C\c1cccs1 (configuration not stated) ?
Outgoing: 0.01

Incoming: Which measured Ratio value corresponds to COC(=O)C1C2CC3CCC1N3C/C2=C\c1cccc(OC)n1 (configuration not stated) ?
Outgoing: 0.65

Incoming: Which measured Ratio value corresponds to COC(=O)C1C2CC3CCC1N3C/C2=C\c1cnccn1 (configuration not stated) ?
Outgoing: 0.27

Incoming: Which measured Ratio value corresponds to COC(=O)C1C2CC3CCC1N3C/C2=C\c1ccc(-c2ccc(Cl)s2)s1 (configuration not stated) ?
Outgoing: 0.62

Incoming: Which measured Ratio value corresponds to COC(=O)C1C2CC3CCC1N3C/C2=C\c1ccc(-c2cccs2)s1 (configuration not stated) ?
Outgoing: 2.04

Incoming: Which measured Ratio value corresponds to COC(=O)C1C2CC3CCC1N3C/C2=C\c1ccc(Cl)s1 (configuration not stated) ?
Outgoing: 0.18

Incoming: Which measured Ratio value corresponds to COC(=O)C1C2CC3CCC1N3C/C2=C\c1ccc(-c2ccc(OC)cc2)s1 (configuration not stated) ?
Outgoing: 0.02

Incoming: Which measured Ratio value corresponds to COC(=O)C1C2CC3CCC1N3C/C2=C\c1ccc(I)s1 (configuration not stated) ?
Outgoing: 0.17

Incoming: Which measured Ratio value corresponds to COC(=O)C1C2CC3CCC1N3C/C2=C\c1ccsc1 (configuration not stated) ?
Outgoing: 0.01

Incoming: Which measured Ratio value corresponds to CCCCc1ccc(/C=C2\CN3C4CCC3C(C(=O)OC)C2C4)s1 (configuration not stated) ?
Outgoing: 0.55

Incoming: Which measured Ratio value corresponds to COC(=O)C1C2CC3CCC1N3C/C2=C\c1ccc(-c2ccccc2)s1 (configuration not stated) ?
Outgoing: 0.19

Incoming: Which measured Ratio value corresponds to COC(=O)C1C2CC3CCC1N3C/C2=C\c1ccc(-c2ccc(SC)cc2)s1 (configuration not stated) ?
Outgoing: 0.08

Incoming: Which measured Ratio value corresponds to CCCc1ccc(/C=C2\CN3C4CCC3C(C(=O)OC)C2C4)s1 (configuration not stated) ?
Outgoing: 2.32

Incoming: Which measured Ratio value corresponds to COC(=O)C1C2CC3CCC1N3C/C2=C\c1ccccn1 (configuration not stated) ?
Outgoing: 0.04

Incoming: Which measured Ratio value corresponds to COC(=O)C1C2CC3CCC1N3C/C2=C\c1ccc(Br)s1 (configuration not stated) ?
Outgoing: 0.57

Incoming: Which measured Ratio value corresponds to COC(=O)C1C2CC3CCC1N3C/C2=C\c1ccc(C)s1 (configuration not stated) ?
Outgoing: 0.03

* * *

Can you tell me Ratio for the items I'm about to list?
methodSummary: Inhibition of reuptake of norepinephrine compared to dopamine.
Assay type: functional
Field format: numeric only.

Incoming: Which measured Ratio value corresponds to COC(=O)C1C2CC3CCC1N3C/C2=C\c1cnccn1 (stereo unspecified) ?
Outgoing: 0.29

Incoming: Which measured Ratio value corresponds to COC(=O)C1C2CC3CCC1N3C/C2=C\c1ccc(-c2ccc(OC)cc2)s1 (stereo unspecified) ?
Outgoing: 0.03

Incoming: Which measured Ratio value corresponds to COC(=O)C1C2CC3CCC1N3C/C2=C\c1cccc(OC)n1 (stereo unspecified) ?
Outgoing: 0.02

Incoming: Which measured Ratio value corresponds to COC(=O)C1C2CC3CCC1N3C/C2=C\c1cccs1 (stereo unspecified) ?
Outgoing: 0.1

Incoming: Which measured Ratio value corresponds to COC(=O)C1C2CC3CCC1N3C/C2=C\c1ccc(-c2cccs2)s1 (stereo unspecified) ?
Outgoing: 0.33

Incoming: Which measured Ratio value corresponds to COC(=O)C1C2CC3CCC1N3C/C2=C\c1ccc(I)s1 (stereo unspecified) ?
Outgoing: 0.01

Incoming: Which measured Ratio value corresponds to COC(=O)C1C2CC3CCC1N3C/C2=C\c1ccc(Cl)s1 (stereo unspecified) ?
Outgoing: 0.07

Incoming: Which measured Ratio value corresponds to COC(=O)C1C2CC3CCC1N3C/C2=C\c1ccsc1 (stereo unspecified) ?
Outgoing: 0.07

Incoming: Which measured Ratio value corresponds to COC(=O)C1C2CC3CCC1N3C/C2=C\c1ccc(-c2ccc(SC)cc2)s1 (stereo unspecified) ?
Outgoing: 0.16

Incoming: Which measured Ratio value corresponds to COC(=O)C1C2CC3CCC1N3C/C2=C\c1ccc(Br)s1 (stereo unspecified) ?
Outgoing: 0.14

Incoming: Which measured Ratio value corresponds to COC(=O)C1C2CC3CCC1N3C/C2=C\c1ccc(-c2ccc(Cl)s2)s1 (stereo unspecified) ?
Outgoing: 0.24
